Reference for the values: ChEMBL document CHEMBL5223181

pKa at 16 h, 10000 µM for assorted molecules
# Procedure details: Dissociation constant, pKa of the compound at 10 mM incubated for 16 hrs with shaking by HPLC-UV analysis
# Format: physicochemical
# print the numeric value only

Please review the entries below; each comes with its answer.
{"Molecular string": "COc1cc2ncnc(Nc3ccc(F)c(Cl)c3)c2cc1OC", "pKa at 16 h, 10000 µM": 4.51}
{"Molecular string": "COc1cc2ncnc(Nc3ccc(O[C@H]4CO[C@H]5[C@@H]4OC[C@@H]5O)c(Cl)c3)c2cc1OC", "pKa at 16 h, 10000 µM": 5}
{"Molecular string": "Cc1cccc(Cl)c1C(=O)N[C@@H](Cc1ccc(-c2c(C)n(C)c(=O)n(C)c2=O)cc1)C(=O)O[C@H]1CO[C@H]2[C@@H]1OC[C@@H]2O", "pKa at 16 h, 10000 µM": 7.9}

Query: Could you share which pKa at 16 h, 10000 µM value was measured for `Cc1cccc(Cl)c1C(=O)N[C@@H](Cc1ccc(-c2c(C)n(C)c(=O)n(C)c2=O)cc1)C(=O)O` ?
Response: 3.4
